Serratia marcescens MITC95 values for the compounds below.
# Test system: Serratia marcescens expressing IMP-1 (CL5741)
# Type: cell-based
# test_settings: IMP-1 strain CL5741, with imipenem 1 μg/ml, 95% inhibition of growth

query_smiles: Cc1cc(-c2ccc(S(=O)(=O)NC[C@@H](O)CN)c(S(N)(=O)=O)c2-c2nn[nH]n2)cnc1N
unit_spec: µM
Serratia marcescens MITC95: 0.7813
//
query_smiles: NCCNS(=O)(=O)c1ccc(-c2cccc(NC[C@H](N)CO)c2)c(-c2nn[nH]n2)c1S(N)(=O)=O
unit_spec: µM
Serratia marcescens MITC95: 0.7813
//
query_smiles: Nc1nc2c(-c3ccc(S(=O)(=O)NC[C@]4(N)CCNC4)c(S(N)(=O)=O)c3-c3nn[nH]n3)cccc2[nH]1
unit_spec: µM
Serratia marcescens MITC95: 0.7813
//
query_smiles: NCCNS(=O)(=O)c1ccc(-c2cccc(-c3c[nH]c(N)n3)c2)c(-c2nn[nH]n2)c1S(N)(=O)=O
unit_spec: µM
Serratia marcescens MITC95: 0.7813
//
query_smiles: Cc1ccc(-c2ccc(S(=O)(=O)NCCN)c(S(N)(=O)=O)c2-c2nn[nH]n2)c2nc(N)[nH]c12
unit_spec: µM
Serratia marcescens MITC95: 1.563
//
query_smiles: Nc1ncc(-c2cccc(-c3ccc(S(=O)(=O)N[C@@H]4CCNC4)c(S(N)(=O)=O)c3-c3nnn[nH]3)n2)[nH]1
unit_spec: µM
Serratia marcescens MITC95: 1.563
//
query_smiles: C[C@@H](N)CNS(=O)(=O)c1ccc(-c2ccc(N)nc2)c(-c2nn[nH]n2)c1S(N)(=O)=O
unit_spec: µM
Serratia marcescens MITC95: 0.3906
//
query_smiles: Cc1ccc(-c2ccc(S(=O)(=O)N[C@@H]3CCNC3)c(S(N)(=O)=O)c2-c2nn[nH]n2)c2nc(N)[nH]c12
unit_spec: µM
Serratia marcescens MITC95: 0.7813
//
query_smiles: Nc1ccc(-c2ccc(S(=O)(=O)N[C@H]3CN[C@H](CO)C3)c(S(N)(=O)=O)c2-c2nn[nH]n2)cn1
unit_spec: µM
Serratia marcescens MITC95: 1.563
//
query_smiles: NCc1nc2c(-c3ccc(S(=O)(=O)NC[C@@H](O)CN)c(S(N)(=O)=O)c3-c3nn[nH]n3)cccc2[nH]1
unit_spec: µM
Serratia marcescens MITC95: 1.172
//
query_smiles: NCc1nc2c(-c3ccc(S(=O)(=O)N[C@@H](CN)CO)c(S(N)(=O)=O)c3-c3nn[nH]n3)cccc2s1
unit_spec: µM
Serratia marcescens MITC95: 1.172
//
query_smiles: N[C@@H]1C=C(c2ccc(S(=O)(=O)N[C@@H]3CCNC3)c(S(N)(=O)=O)c2-c2nn[nH]n2)CCC1
unit_spec: µM
Serratia marcescens MITC95: 1.563
//
query_smiles: NCc1nc2c(-c3ccc(S(=O)(=O)N[C@@H]4CCNC4)c(S(N)(=O)=O)c3-c3nn[nH]n3)cccc2[nH]1
unit_spec: µM
Serratia marcescens MITC95: 0.6836
//
query_smiles: CC[C@@H](CN)NS(=O)(=O)c1ccc(-c2cccc3[nH]c(N)nc23)c(-c2nn[nH]n2)c1S(N)(=O)=O
unit_spec: µM
Serratia marcescens MITC95: 1.563
